- Tested on: ACHN
- procedure details: NCI tumour cell line growth inhibition, 48 h
The source made the active and inactive calls. Cut-off read from the data, not from the text of the source: active = GI50 up to about 1.1 µM and inactive = higher.
Field 'call' accepts active, inactive

# molecule, system under test, category label
data = [
    ("CC(=O)O[C@]12CCCCCC1C1(O)C(O)CCCC[C@H]12 (stereo partly drawn)", "ACHN", "inactive"),
    ("COC(=O)C(Cc1ccccc1)NP(=O)(O)OCC1OC(n2cc(I)c(=O)[nH]c2=O)CC1O (stereo not drawn)", "ACHN", "inactive"),
    ("Cc1ccc2ccc(O)cc2c1", "ACHN", "inactive"),
    ("CC(=O)OCC1OC(OCCCCCCO)C(OC(C)=O)C(OC(C)=O)C1OC(C)=O (stereo not drawn)", "ACHN", "inactive"),
    ("N=C(N)N/N=C/c1ccc(O)c(C(=O)O)c1", "ACHN", "inactive"),
]

Query :: # fetch the recorded call for COC(=O)/C=C(\C(=O)OC)c1c2c3c(cc(OC)c(OC)c3c3ccccc13)CCN2C here
Result :: inactive

Query :: # fetch the recorded call for Clc1cc(-c2ccccc2)nc2ccccc12 here
Result :: inactive

Query :: # fetch the recorded call for O=C1C2CC=CCC2C(=O)N1n1c(-c2ccccc2)n[nH]c1=O (stereo not drawn) here
Result :: inactive

Query :: # fetch the recorded call for Cc1ccc(-n2c(=S)[nH]c3ccc(Br)cc3c2=O)cc1 here
Result :: inactive

Query :: # fetch the recorded call for COC(=O)C1CCC(=O)N1C(c1ccccc1)c1cc(OC)c(OC)c(OC)c1 (stereo not drawn) here
Result :: inactive

Query :: # fetch the recorded call for COc1cc(OC)cc(N(C)Cc2cnc3nc(N)nc(N)c3c2C)c1 here
Result :: active

Query :: # fetch the recorded call for CCc1cccc(CC)c1Nc1nc(-c2ccccc2-c2ccccc2)cs1 here
Result :: inactive

Query :: # fetch the recorded call for CC(=O)CC(OC(C)=O)C1=CCC2C(CC1C)OC(=O)C2C (stereo not drawn) here
Result :: inactive

Query :: # fetch the recorded call for CC(CO)(CO)N1C(=O)C2C3c4ccccc4C(c4ccccc43)C2C1=O (stereo not drawn) here
Result :: inactive

Query :: # fetch the recorded call for c1cc2c(cc1C(N1CCNCC1)N1CCNCC1)OCO2 here
Result :: inactive
